Listed compounds paired with reported pEC50
Target Entity: UniProt:P48443
Sequence (P48443 1-463): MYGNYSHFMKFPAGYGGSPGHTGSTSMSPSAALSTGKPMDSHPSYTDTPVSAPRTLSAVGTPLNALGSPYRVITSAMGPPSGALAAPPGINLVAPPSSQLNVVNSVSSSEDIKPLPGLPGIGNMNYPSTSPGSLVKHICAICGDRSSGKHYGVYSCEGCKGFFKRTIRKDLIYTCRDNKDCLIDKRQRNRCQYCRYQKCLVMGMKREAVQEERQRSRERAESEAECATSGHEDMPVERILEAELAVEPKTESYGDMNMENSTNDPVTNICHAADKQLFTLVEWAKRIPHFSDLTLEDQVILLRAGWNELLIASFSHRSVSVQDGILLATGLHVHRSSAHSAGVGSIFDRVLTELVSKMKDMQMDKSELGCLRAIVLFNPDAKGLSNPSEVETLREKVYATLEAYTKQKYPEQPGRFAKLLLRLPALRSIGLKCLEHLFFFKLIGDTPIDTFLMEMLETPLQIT
Assay Comment: Retinoid activation assay, RXRγ (Schneider SL-3 cells, luciferase reporter)
Type: cell-based
Condition Info: read-out: Activation EC50 RXR γ
pEC50: −log10 of the molar value.

# Compound, Target Entity, pEC50
records = [
    ("CCCCOc1c([C@@H]2C[C@@H]2/C=C/C(C)=C/C(=O)O)cc(C(C)(C)C)cc1C(C)(C)C (racemic) [Compound 16]", "UniProt:P48443", "≤ 5.00"),
]

// below: pEC50 requested for another compound
Request: What value of measured pEC50 is listed for CC(/C=C/c1sccc1-c1ccc2c(c1)C(C)(C)CCC2(C)C)=C\C(=O)O [Compound 9] ?
Result: 7.05
